target: HLA-DR DRB1*0405 (DR4) (Homo sapiens, UniProt P01903+P01911, A100R/A169T/D86S/F76Y/I96L/K127E/L162R/M171V/N62H/P40V/Q125Y/R42H/S133A/S149N/S66Y/V115G/V209L/W38E); test: biochemical; format: binding; details: DRB1 *0405
No end group written: not given here.
Listed here are sequences together with their documented pIC50.
Just so you know, pIC50 here is -log10 of the concentration in molar units; reply with that number alone.

[[record]]
seq_text = "HIEFTPTRTDTYACRV"
reported_measurement = 5.00

[[record]]
seq_text = "VTGERGFFYTPKTRR"
reported_measurement = 4.87

[[record]]
seq_text = "LFFYRKSVWSKLQSI"
reported_measurement = 7.08

[[record]]
seq_text = "QHLCGSHLVEALYLV"
reported_measurement = 5.01

[[record]]
seq_text = "LQLHVDKAVSGLRSL"
reported_measurement = 4.87


# next sequence below
Query (sequence): RTAMFQDPQERPRKL ; field requested: pIC50
5.10

----------
molecular target: HLA-DR DRB1*0802 (DR8) (Homo sapiens, UniProt P01903+P01911, A100R/A103L/A169T/F76Y/H45Y/I96F/K41T/L162R/M171V/P40S/Q125H/Q178H/Q39Y/Q99D/R218S/R42G/S66Y/V115G/W38E); assay: biochemical; format: binding
No end group written: not given here.
measured-attribute: IC50

Query (sequence): SNLELLRISLLLIQS ; field requested: IC50
> 33.3 µM

----------
Listed here are compounds together with their documented pIC50.
biological target: HLA-DR DRB1*1501 (DR15) (Homo sapiens, UniProt P01903+P01911); assay: biochemical; assay type: binding; settings: DRBI *1501
pIC50: −log10 of the molar value.

[[record]]
smiles_str = "CSCC[C@H](NC(=O)[C@@H](NC(=O)[C@H](CCCCN)NC(=O)[C@@H](NC(=O)[C@H](C)NC(=O)[C@H](CC(=O)O)NC(=O)[C@@H](N)[C@@H](C)O)C(C)C)C(C)C)C(=O)N[C@@H](CC(=O)O)C(=O)N[C@@H](CC(C)C)C(=O)N1CCC[C@H]1C(=O)N[C@H](C(=O)N[C@@H](CCC(N)=O)C(=O)N[C@@H](CCC(=O)O)C(=O)N1CCC[C@H]1C(=O)N[C@@H](C)C(=O)O)[C@@H](C)O"
reported_measurement = "< 4.34"

[[record]]
smiles_str = "CC[C@H](C)[C@H](NC(=O)[C@H](CO)NC(=O)[C@H](CO)NC(=O)[C@H](CC(=O)O)NC(=O)[C@H](C)NC(=O)[C@H](CC(N)=O)NC(=O)[C@@H](NC(=O)[C@H](Cc1ccc(O)cc1)NC(=O)[C@H](C)NC(=O)[C@@H](N)C(C)C)[C@@H](C)CC)C(=O)N[C@@H](CCC(=O)O)C(=O)NCC(=O)N[C@@H](CC(N)=O)C(=O)N[C@@H](Cc1ccc(O)cc1)C(=O)N[C@H](C(=O)O)[C@@H](C)O"
reported_measurement = "< 5.46"

[[record]]
smiles_str = "CSCC[C@H](NC(=O)CNC(=O)[C@H](CC(C)C)NC(=O)[C@H](CCC(N)=O)NC(=O)[C@@H](NC(=O)[C@H](CC(C)C)NC(=O)[C@H](CCC(N)=O)NC(=O)CNC(=O)[C@@H](N)Cc1ccccc1)[C@@H](C)O)C(=O)N[C@@H](CCC(=O)O)C(=O)N[C@@H](CCC(N)=O)C(=O)N[C@@H](Cc1c[nH]cn1)C(=O)N[C@@H](Cc1ccc(O)cc1)C(=O)N[C@@H](CCC(=O)O)C(=O)N[C@@H](CC(C)C)C(=O)O"
reported_measurement = "< 4.64"


# next compound below
Query (compound): CC(C)C[C@H](NC(=O)[C@H](CCC(N)=O)NC(=O)[C@H](CC(=O)O)NC(=O)[C@H](CCC(=O)O)NC(=O)[C@H](CO)NC(=O)[C@H](CC(C)C)NC(=O)[C@@H]1CCCN1C(=O)[C@@H](NC(=O)[C@@H](N)[C@@H](C)O)C(C)C)C(=O)N[C@@H](CC(C)C)C(=O)N[C@@H](Cc1ccc(O)cc1)C(=O)N[C@@H](CC(C)C)C(=O)N1CCC[C@H]1C(=O)N[C@@H](Cc1ccccc1)C(=O)N[C@@H](CCCNC(=N)N)C(=O)O ; field requested: pIC50
< 5.63

Values compiled from patent US20060079453A1.
